Assayed target: α-glucosidase from Saccharomyces cerevisiae (Saccharomyces cerevisiae)
Construct: purchased Sigma Aldrich Inc. (St. Louis, MO. USA)
Sequence (P53341 whole entry): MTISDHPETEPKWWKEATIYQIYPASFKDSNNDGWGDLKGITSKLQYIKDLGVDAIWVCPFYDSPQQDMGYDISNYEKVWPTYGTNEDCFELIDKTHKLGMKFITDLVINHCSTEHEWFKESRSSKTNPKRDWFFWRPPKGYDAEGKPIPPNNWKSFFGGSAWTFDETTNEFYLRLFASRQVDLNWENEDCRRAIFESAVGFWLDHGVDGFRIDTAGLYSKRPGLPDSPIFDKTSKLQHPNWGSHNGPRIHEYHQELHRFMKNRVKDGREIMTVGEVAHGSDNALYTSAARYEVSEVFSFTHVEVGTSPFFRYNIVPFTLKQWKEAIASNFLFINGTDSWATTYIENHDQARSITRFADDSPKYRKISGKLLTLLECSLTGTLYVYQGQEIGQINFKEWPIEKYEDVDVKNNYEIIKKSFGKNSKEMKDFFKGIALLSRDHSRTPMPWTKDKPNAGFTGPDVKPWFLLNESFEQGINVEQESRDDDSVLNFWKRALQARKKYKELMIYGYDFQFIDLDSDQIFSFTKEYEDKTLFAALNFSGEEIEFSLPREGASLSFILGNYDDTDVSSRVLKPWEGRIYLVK
Procedure text: α-Glucosidase inhibitory assay (pNPG substrate)
Format: biochemical
Condition summary: IC50 α-Glucosidase, molar value, in parentheses in Table 3
Measurement kind: IC50

Request: Can you share its IC50? I mean this compound: O=C(O)c1cc(O)c(O)c(O)c1 [Gallic acid]
Result: > 25 µM
